# target of assay: SRC SH3 domain (aa 77-140) (Homo sapiens)
# Sequence (P12931 77-140 limits assumed): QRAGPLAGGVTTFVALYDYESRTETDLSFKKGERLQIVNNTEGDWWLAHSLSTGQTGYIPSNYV
Peptide text beside a SMILES is read from it.
measurement type: Kd

Here are 3 compounds together with their reported answers.
CC(C)C[C@H](NC(=O)[C@@H](NC(=O)[C@@H](N)C(C)C)[C@@H](C)O)C(=O)N1CCC[C@H]1C(=O)N[C@@H](Cc1c[nH]cn1)C(=O)NCC(=O)N1CCC[C@H]1C(=O)N[C@@H](CCCNC(=N)N)C(=O)N[C@@H](CO)C(=O)N[C@@H](C)C(=O)O [Peptide P2] (H-VTLPHGPRSA-OH); > 200 µM
CC(C)C[C@H](NC(=O)[C@@H]1CCCN1C(=O)[C@@H](NC(=O)[C@H](CCCNC(=N)N)NC(=O)[C@@H]1CCCN1C(=O)[C@H](CO)NC(=O)[C@H](CC(N)=O)NC(=O)[C@@H]1CCCN1C(=O)[C@H](C)NC(=O)[C@@H](N)CO)[C@@H](C)O)C(=O)N[C@H](C(=O)N1CCC[C@H]1C(=O)N1CCC[C@H]1C(=O)N1CCC[C@H]1C(=O)N[C@@H](C)C(=O)N[C@@H](CO)C(=O)O)[C@@H](C)O [Peptide P1] (H-SAPNSPRTPLTPPPAS-OH); > 200 µM
CC(C)C[C@H](NC(=O)[C@H](Cc1c[nH]cn1)NC(=O)[C@H](CC(C)C)NC(=O)[C@@H]1CCCN1C(=O)[C@H](CO)NC(=O)[C@H](CO)NC(=O)[C@@H](N)CO)C(=O)N[C@@H](CCC(N)=O)C(=O)N1CCC[C@H]1C(=O)N1CCC[C@H]1C(=O)N1CCC[C@H]1C(=O)N[C@@H](CC(C)C)C(=O)NCC(=O)N[C@@H](CCCCN)C(=O)N[C@@H](CCCCN)C(=O)O [Peptide P6] (H-SSSPLHLQPPPLGKK-OH; N-terminus and C-terminus assumed); > 200 µM

Asked: // fetch SRC SH3 domain (aa 77-140) (Homo sapiens) Kd for CC[C@H](C)[C@H](NC(=O)[C@H](C)NC(=O)[C@@H]1CCCN1C(=O)[C@@H]1CCCN1C(=O)[C@H](CO)NC(=O)[C@H](CC(=O)O)NC(=O)[C@@H](N)CC(C)C)C(=O)N1CCC[C@H]1C(=O)N1CCC[C@H]1C(=O)N[C@@H](CCCNC(=N)N)C(=O)N[C@@H](CCC(N)=O)C(=O)N1CCC[C@H]1C(=O)N[C@H](C(=O)N[C@@H](CO)C(=O)N[C@@H](CCCCN)C(=O)O)[C@@H](C)O [Peptide P4] (H-LDSPPAIPPRQPTSK-OH)
Given back: > 200 µM

Asked: // fetch SRC SH3 domain (aa 77-140) (Homo sapiens) Kd for CC(C)[C@H](NC(=O)[C@@H]1CCCN1C(=O)[C@@H]1CCCN1C(=O)[C@H](C)NC(=O)[C@H](CCC(=O)O)NC(=O)[C@H](CS)NC(=O)[C@@H](N)CCCNC(=N)N)C(=O)N1CCC[C@H]1C(=O)N1CCC[C@H]1C(=O)N[C@@H](CCCNC(=N)N)C(=O)N[C@@H](CCCNC(=N)N)C(=O)N[C@@H](CCC(=O)O)C(=O)N[C@@H](CCCNC(=N)N)C(=O)NCC(=O)O [RP2, reference compound] (H-RCEAPPVPPRRERG-OH)
Given back: > 200 µM
